Every entry's value here was drawn from ChEMBL document CHEMBL4689842.

- System: U2OS
- test.method.notes: Multiplex assay against U2OS
- Format: toxicity, cell-based
- assay.context: human, 24 h, 10 µM, compound concentration 10 uM, replicate 2
observation.type: Population Tubulin-Different-Phenotype (%)

[
  {
    "compound": "Cl.N#Cc1ccc2[nH]cc(CCCCN3CCN(c4ccc5oc(C(N)=O)cc5c4)CC3)c2c1 [VILAZODONE HYDROCHLORIDE]",
    "value.observed": 90
  },
  {
    "compound": "Cc1nc(-c2ccc(-c3ccc(C(=O)N4CCc5cc6c(cc54)C4(CCN(C)CC4)CO6)cc3)c(C)c2)no1",
    "value.observed": 100
  },
  {
    "compound": "Cc1nc(Nc2n[nH]c3c2CN(C(=O)N[C@H](CN(C)C)c2ccccc2)C3(C)C)c2sccc2n1",
    "value.observed": 82
  }
]
